Test: Cytotoxicity in the anti-HIV assay: detectable changes in cell morphology or loss of monolayer adherence to the culture plate
Assay type: cell-based
Details: human, ht46c cells; below threshold = no detectable changes in cell morphology or loss of monolayer adherence
readout.label: MCC (µM)
Note: unit µM is implicit; provide only the numeric part.

Req: Requested field: MCC. Item: "Cc1ccc2c(C=O)c(O)c(O)c(C(C)C)c2c1"
Resp: 54

// data source = patent US5936120A
